Source listed as PubChem BioAssay (NCI).

System: CAKI-1 renal
Measurement description: NCI tumour cell line growth inhibition, 48 h
Measured TGI accompanies every entry in the list below.
Report the figure in µM without appending any unit label.

The reported TGI value, CAKI-1 renal, for "Fc1ccc(Nc2nc(Nc3ccc(-c4nc5ccccc5[nH]4)cc3)nc(N3CCCC3)n2)cc1" reads 12.5

The reported TGI value, CAKI-1 renal, for Cc1ccccc1NC(=O)NC(CC(N)=O)c1ccc2c(c1)nc(-c1cccc(Oc3ccc(C(C)(C)C)cc3)c1)n2CCCN1CCCCC1C (stereo not given) reads 42.8

The reported TGI value, CAKI-1 renal, for "COc1ccccc1NC(=S)N/N=C(/c1ccccc1)c1ccccn1" reads 10.2

The reported TGI value, CAKI-1 renal, for "CC(=O)C1=CC=C/C1=N\Nc1ccccc1" reads 11.8
